- System: rats
- testMethodNotes: Phase II: dose-responsive hypotensive effects of the individual agents, ED30/ED50 relative to sodium nitroprusside
- Type: in vivo, rat
- conditionSet: i.v.; dose causing 30% of the maximal drop in blood pressure produced by sodium nitroprusside 30 μg/kg i.v.
If the reported ED30 equals or exceeds 0.2 mg/kg, assign Y. If not, assign N.

Examples from the recorded data:
- compound: "CCOC(=O)C1=C(COCCN)NC(C)=C(C(=O)OC)[C@@H]1c1ccccc1Cl.O=C(O)C[C@H](O)C(=O)O [(S)-amlodipine malate, (S)-Amlodipine-L-Malate]"
  className: "N"
- compound: "CCCCc1ncc(/C=C(\\Cc2cccs2)C(=O)O)n1Cc1ccc(C(=O)O)cc1"
  className: "N"
- compound: "CCCCC1=NC2(CCCC2)C(=O)N1Cc1ccc(-c2ccccc2-c2nnn[nH]2)cc1"
  className: "Y"
- compound: "CCCCc1nc(Cl)c(CO)n1Cc1ccc(-c2ccccc2-c2nnn[nH]2)cc1"
  className: "Y"

Data request: Determine whether this compound has ED30 no lower than 0.2 mg/kg: `CCOc1nc2cccc(C(=O)O)c2n1Cc1ccc(-c2ccccc2-c2nnn[nH]2)cc1`
Data returned: N

Data request: One more compound: `CCCc1nc2c(C)cc(-c3nc4ccccc4n3C)cc2n1Cc1ccc(-c2ccccc2C(=O)O)cc1`
Data returned: Y

Data request: One more compound: `CCCCC(=O)N(Cc1ccc(-c2ccccc2-c2nnn[nH]2)cc1)[C@H](C(=O)O)C(C)C`
Data returned: Y
